Target: T1, cynomolgus TREM2-Fc (cynomolgus monkey, UniProt A0A2K5UY34 49-204)
T1 construct: also called cyno TREM2; not shown: Fc part
T1 sequence: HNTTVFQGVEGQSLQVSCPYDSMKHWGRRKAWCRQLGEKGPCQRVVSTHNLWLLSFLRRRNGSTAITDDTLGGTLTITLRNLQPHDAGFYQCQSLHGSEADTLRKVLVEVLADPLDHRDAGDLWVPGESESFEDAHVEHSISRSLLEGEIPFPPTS
Experiment: SPR (Biacore T200), 37 C; TREM2-Fc on anti-human IgG1 Fc chip, Fab in solution
The reader will find reported kon values listed item by item below.
Write down the numeric answer in M⁻¹ s⁻¹ and omit the unit.

Binder	kon [M⁻¹ s⁻¹]
3.10C2 Fab (Fab, V domains shown, also called 3.10C2 (3.10C2); Rat3.10C2) VH: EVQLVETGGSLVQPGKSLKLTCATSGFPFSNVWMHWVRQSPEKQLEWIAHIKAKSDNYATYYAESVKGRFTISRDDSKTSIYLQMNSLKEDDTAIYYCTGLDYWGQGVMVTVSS VL: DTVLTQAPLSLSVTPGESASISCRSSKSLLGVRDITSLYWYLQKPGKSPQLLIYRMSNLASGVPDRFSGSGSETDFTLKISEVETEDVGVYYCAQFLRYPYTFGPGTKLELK	680000

Now take the following binder into account.
Problem: Can you share its kon? I mean this binder: Para.09 Fab with the 3.10C2 light chain (Fab, V domains shown, also called Para.09 (3.10C2)) VH: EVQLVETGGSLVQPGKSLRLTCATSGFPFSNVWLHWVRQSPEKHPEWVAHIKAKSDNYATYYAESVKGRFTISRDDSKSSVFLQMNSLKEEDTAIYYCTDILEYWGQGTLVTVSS VL: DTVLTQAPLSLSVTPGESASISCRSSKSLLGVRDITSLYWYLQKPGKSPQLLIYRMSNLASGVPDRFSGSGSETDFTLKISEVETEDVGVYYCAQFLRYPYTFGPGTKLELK
Result: 4.8e+06
